The reported measurements were obtained from PubChem BioAssay (NCI).

Measured TGI values are reported for all entries that follow.
- Test system: M14 melanoma
- protocol text: NCI tumour cell line growth inhibition, 48 h

> print(dat)
                                   compound  assayed.target  property  endpoint.result
1  O=C1CC(C(O)CO)CC(=O)N1 (stereo unspecified)    M14 melanoma       TGI         > 100 µM
2             O=C(Nc1nc2ccccc2s1)OCC(F)(F)F    M14 melanoma       TGI         > 100 µM
3                             CSC1=NC=CCN1C    M14 melanoma       TGI         > 100 µM

query: Query: TGI; subject: CCCCCCCCCCCCCC(=S)NCCCC[C@H](NC(=O)OCc1ccccc1)C(=O)Nc1ccccc1
result: > 100 µM

query: Value lookup for TGI; key = CC(=O)Nc1cccc(-n2c(=O)n(C3CC3)c(=O)c3c(Nc4ccc(I)cc4F)n(C)c(=O)c(C)c32)c1
result: < 0.01 µM

query: Need TGI, item CCOC(=O)c1cc(C2(O)CCN(Cc3ccccc3)C2=O)c(-c2cc(C)no2)[nH]1 (stereo unspecified)
result: > 100 µM
